Reported pIC50 against JNK2 (Homo sapiens (Human), UniProt P45984), gathered from multiple publications, appears below.
pIC50: −log10 of the molar value.

structureAsSmiles	boundOperator	pIC50
c1csc(-c2cnc3[nH]cc(-c4cncs4)c3c2)c1	>	6.30
CC(=O)c1c(Cc2ccc(S(=O)(=O)N3CCN(C)CC3)cc2)c(=O)c2ccc(Cl)cc2n1-c1ccccc1	=	6.47
O=C([C@H]1CC[C@H](Nc2nccc(-n3ccc4c(-c5ccsc5)cccc43)n2)CC1)N1CCC(O)CC1	=	6.72
O=C(Cn1c(=O)ccc2nc(C(F)(F)F)ccc21)Nc1scc(Br)c1-c1ncn[nH]1	>	7.00
COCn1nnc(-c2ccsc2NC(=O)Cc2ccc(OC)cc2)n1	<	4.30
N#CCC(=O)N1CCN(c2cccc3c2ccn3-c2ccnc(N[C@@H]3CC[C@@H](O)C3)n2)CC1	=	6.98
COCCO[C@H]1CC[C@H](Nc2nccc(-n3ccc4c(N5CCN(C(C)=O)CC5)cccc43)n2)CC1	=	6.39

---

Reported IC50 against UniProt P45984, gathered from multiple publications, appears below.
propertyName: IC50

molecule	result
O=C(Cc1ccc(C(F)(F)F)c2ncccc12)Nc1scc(Cl)c1-c1ncn[nH]1	100 to 10000 nM
CCCCNC(=O)n1ccc2c(C(=O)c3c[nH]c4ncc(-c5cccnc5)cc34)cccc21	≤ 10000 nM
COC(=O)c1c(Cc2ccc(S(=O)(=O)C(C)CO)cc2)c(=O)c2ccc(Cl)cc2n1-c1ccccc1 (centres unmarked)	86.7 nM
COc1ccc(CC(=O)Nc2ccsc2-c2nc(N)n[nH]2)cc1	100 to 10000 nM
Cn1cnc(-c2c(Cl)csc2NC(=O)Cn2c(=O)ccn3nccc23)n1	< 100 nM

---

Reported IC50 against JNK2 (Homo sapiens (Human)), gathered from multiple publications, appears below.

molecule	assayTarget	boundOperator	IC50 / nM
Oc1ccc(F)c(C(O)c2c[nH]c3ncc(-c4cccnc4)cc23)c1F (stereo not shown)	JNK2 (Homo sapiens (Human))	≤	10000
CCC(=O)c1c(Cc2ccc(S(=O)(=O)N3CCN(C)CC3)cc2)c(=O)c2ccc(Cl)cc2n1-c1ccccc1	JNK2 (Homo sapiens (Human))	=	477
CN(C)CCN([C@H]1CC[C@H](Nc2nccc(-n3ccc4c(N5CCN(C(=O)CC#N)CC5)cccc43)n2)CC1)S(C)(=O)=O	JNK2 (Homo sapiens (Human))	=	24.6
CC(C)(O)c1cccn2c(-c3ccnc(N[C@H]4CC[C@H](C(=O)N5CCC(O)CC5)CC4)n3)cnc12	JNK2 (Homo sapiens (Human))	=	369

---

Reported IC50 against UniProt:P45984, gathered from multiple publications, appears below.

compound	IC50
CN1CCN(CCCn2cnc(-c3c(Cl)csc3NC(=O)Cn3c(=O)ccc4cc(C(F)(F)F)ccc43)n2)CC1	100 to 10000 nM
N#Cc1ccc2c(ccc(=O)n2CC(=O)Nc2scc(Br)c2-c2ncn[nH]2)c1	< 100 nM
O=C(CN1C(=O)CCc2ccccc21)Nc1ccsc1-c1cscn1	100 to 10000 nM
O=C(Cc1cccc2cnccc12)Nc1ccsc1-c1nccs1	100 to 10000 nM
Cc1n[nH]c(-c2sccc2NC(=O)Cc2ccc(N3CCCC3=O)cc2)n1	100 to 10000 nM
O=C(Cc1c(F)ccc2ncccc12)Nc1scc(Br)c1-c1ncn[nH]1	< 100 nM
CN(C)S(=O)(=O)N[C@H]1CC[C@H](Nc2nccc(-n3ccc4c(N5CCC(S(C)(=O)=O)CC5)cccc43)n2)CC1	20.8 nM
COc1ccc(CC(=O)Nc2ccsc2-c2ncn[nH]2)cc1	100 to 10000 nM
O=C(Cc1cccc2cnccc12)Nc1ccsc1-c1csc(Cl)n1	10000 to 50000 nM
O=C(Cc1cccc2cnccc12)Nc1scc(Cl)c1-c1ncn[nH]1	< 100 nM
O=C(Cn1c(=O)ccc2c(C(F)(F)F)cccc21)Nc1scc(Br)c1-c1ncn[nH]1	100 to 10000 nM
O=C(Cn1c(=O)ccc2cc(Cl)ccc21)Nc1scc(Br)c1-c1ncn[nH]1	< 100 nM
CS(=O)(=O)C[C@H]1CC[C@H](Nc2nccc(-n3ccc4c(N5CCN(C(=O)CC#N)CC5)cccc43)n2)CC1	13.6 nM
O=C(Cc1cccc2nccn12)Nc1scc(Br)c1-c1ncn[nH]1	100 to 10000 nM
CS(=O)(=O)Nc1ccc(F)c(C(=O)c2c[nH]c3ncc(-c4cccnc4)cc23)c1	≤ 10000 nM
O=C(Cc1cccc2ccccc12)Nc1ccsc1-c1nnco1	10000 to 50000 nM
COc1cccc(C(=O)c2c[nH]c3ncc(-c4cccc(N)c4)cc23)c1	≤ 10000 nM
CN(C)CCn1cnc(-c2c(Cl)csc2NC(=O)Cn2c(=O)ccc3cc(C(F)(F)F)ccc32)n1	< 100 nM
O=C(Cn1c(=O)ccc2ncccc21)Nc1scc(Br)c1-c1ncn[nH]1	< 100 nM
O=C(Cc1cncc2ccccc12)Nc1scc(Br)c1-c1nnc[nH]1	100 to 10000 nM
CC1CCC(c2cnc3[nH]cc(-c4cnn(C)c4)c3c2)CC1 (stereo not shown)	501 nM
O=C(Cn1c(=O)ccc2cc(C(F)(F)F)ccc21)Nc1scc(Cl)c1-c1ncn[nH]1	< 100 nM
COC(=O)c1c(Cc2ccc(S(=O)(=O)NCC(C)(C)O)cc2)c(=O)c2ccc(Cl)cc2n1-c1ccccc1	118 nM
CCCCNC(=O)Nc1cccc(C(=O)c2c[nH]c3ncc(-c4cccnc4)cc23)c1C	≤ 10000 nM
N#Cc1csc(NC(=O)Cn2c(=O)ccc3cc(C(F)(F)F)ccc32)c1-c1cscn1	< 100 nM
Cc1cc(NC(=O)Nc2cccc(C(=O)c3c[nH]c4ncccc34)c2)on1	≤ 10000 nM
CC(C)(C)OC(=O)NCC(=O)N1CCN(c2cccc3c2ccn3-c2ccnc(N[C@H]3CC[C@H](NS(C)(=O)=O)CC3)n2)CC1	26.4 nM
N#CCC(=O)O[C@@H]1CCC[C@H](Nc2nccc(-n3ccc4c(N5CCN(C(=O)CC#N)CC5)cccc43)n2)C1	198 nM
NC(=O)c1cccc(-c2cnc3[nH]cc(C(=O)c4cccc(O)c4F)c3c2)c1	≤ 10000 nM
CN(C)S(=O)(=O)N[C@H]1CC[C@H](Nc2nccc(-c3cnc4c(C(C)(C)O)cccn34)n2)CC1	124 nM
Cc1noc(C)c1-c1cccc2c1nnn2-c1ccnc(N[C@H]2CC[C@H](C(=O)N3CCC(O)CC3)CC2)n1	105 nM
COC(=O)C(=O)NS(=O)(=O)c1ccc(Cc2c(C(=O)OC)n(-c3ccccc3)c3cc(Cl)ccc3c2=O)cc1	2060 nM
O=C([C@H]1CC[C@H](Nc2nccc(-n3ccc4c(-c5ccccc5)cccc43)n2)CC1)N1CCC(O)CC1	856 nM
CN1CCC[C@H]1C(=O)OC1CCN(C(=O)[C@H]2CC[C@H](Nc3nccc(-n4ccc5c(OCCCS(C)(=O)=O)cccc54)n3)CC2)CC1	57.2 nM

---

Reported IC50 against JNK2 (Homo sapiens (Human), UniProt P45984), gathered from multiple publications, appears below.

structureAsSmiles	IC50
O=C(Cc1cccc2ccccc12)Nc1ccsc1-n1ccnc1	> 50000 nM
O=C([C@H]1CC[C@H](Nc2nccc(-n3nnc4c(-c5ccncc5)cccc43)n2)CC1)N1CCC(O)CC1	91.2 nM
CN1CCN([C@H]2CC[C@H](c3cnc4[nH]cc(-c5cnn(C)c5)c4c3)CC2)CC1	245 nM
O[C@H]1CC[C@H](Nc2nccc(-c3cnc4ccccn34)n2)CC1	254 nM
CN(C)CCN(C(=O)Cn1c(=O)ccc2cc(C(F)(F)F)ccc21)c1scc(Cl)c1-c1nc[nH]n1	100 to 10000 nM
COc1ccc(CC(=O)Nc2sccc2-c2nn[nH]n2)cc1	> 50000 nM
O=C(Cn1c(=O)ccc2cc(C(F)(F)F)ccc21)Nc1sc(Cl)cc1-c1ncn[nH]1	100 to 10000 nM
O=C(Cc1cccc2ncc(F)cc12)Nc1scc(Br)c1-c1nc[nH]n1	< 100 nM
CS(=O)(=O)N[C@H]1CC[C@H](Nc2nccc(-c3cnc4ccccn34)n2)CC1	214 nM

---

Reported IC50 against JNK2 (Homo sapiens (Human)), gathered from multiple publications, appears below.
propertyName: IC50

structureAsSmiles	result
COc1ccc(CC(=O)Nc2ccsc2-c2ncco2)cc1	> 10000 nM
COc1ccc(-c2c[nH]c3ncccc23)cc1OC	≤ 10000 nM
O=C(Cc1cc(C(F)(F)F)c2cccnc2c1)Nc1scc(Br)c1-c1nnc[nH]1	100 to 10000 nM
O=C(Cn1c(=O)ccc2cc(C(F)(F)F)ccc21)Nc1scc(Br)c1-c1ncn[nH]1	< 100 nM
O=C(c1cccc(O)c1)c1c[nH]c2ncc(Nc3ccccc3)cc12	≤ 10000 nM
Cc1n[nH]cc1-c1cccc2c1nnn2-c1ccnc(NC2CCN(S(C)(=O)=O)CC2)n1	14 nM
CN(C)CC(=O)OC1CCN(C(=O)[C@H]2CC[C@H](Nc3nccc(-n4ccc5c(OCCCS(C)(=O)=O)cccc54)n3)CC2)CC1	67.6 nM
CCCCNC(=O)Nc1ccc(F)c(C(=O)c2c[nH]c3ncc(OC)cc23)c1F	≤ 10000 nM
CC(=O)N1CCN(c2cccc3c2ccn3-c2ccnc(N[C@H]3CC[C@H](N(C)S(C)(=O)=O)CC3)n2)CC1	105 nM
Cn1cccc1-c1nc(-c2ccnc3[nH]ccc23)no1	≤ 10000 nM
O=C(CN1C(=O)CCc2cnccc21)Nc1ccsc1-c1cscn1	100 to 10000 nM
CC(=O)N1CCN(c2cccc3c2ccn3-c2ccnc(N[C@H]3CC[C@H](C(C)(C)O)CC3)n2)CC1	432 nM
Cc1noc(NC(=O)Nc2cccc(C(=O)c3c[nH]c4ncc(Cl)cc34)c2)c1C	≤ 10000 nM
Cc1csc(NC(=O)Cc2cccc3ncccc23)c1-c1ncn[nH]1	100 to 10000 nM
Cc1c(N)c2cnc(N[C@H]3CC[C@H](C(=O)N4CCCC4)CC3)nc2n(C2CCC2)c1=O	37.7 nM
Cc1cc(-c2sccc2NC(=O)Cc2cccc3ccccc23)n[nH]1	> 50000 nM
O=C(Cc1ccnc2ccccc12)Nc1scc(Br)c1-c1nnc[nH]1	100 to 10000 nM
O=C(Cn1c(=O)ccc2cc(C(F)(F)F)ccc21)Nc1scc(Cl)c1-c1ncn(CCCN2CCCC2)n1	< 100 nM
